T/C overview
Target: S-phase kinase-associated protein 2/Haloalkane dehalogenase (Homo sapiens) (UniProt Q13309+P0A3G3)
Experiment: PROTAC activity at Skp2 in HEK293 cells/HaloTag7 fusion protein (unknown origin) stably expressed in HEK293 cells assessed as protein degradation by measuring test to control ratio at 3 uM incubated for 24 hrs by Western blot analysis
Format: cell-based
measurement_kind: T/C

O=C(O)CCc1ccc(OCCOCCOCCOCCOCCOCCCCCCCl)cc1/C=C1\SC(=S)N(Cc2cccnc2)C1=O = 37
O=C(O)CCc1ccc(OCCOCCOCCOCCOCCCCCCCl)cc1/C=C1\SC(=S)N(Cc2cccnc2)C1=O = 25
O=C(O)COc1ccc(OCCOCCOCCOCCOCCOCCCCCCCl)cc1/C=C1\SC(=S)N(Cc2cccnc2)C1=O = 103
O=C(O)CCc1ccc(OCCOCCOCCOCCCCCCCl)cc1/C=C1\SC(=S)N(Cc2cccnc2)C1=O = 81
